The values you see were collected from patent US6001988.

test system: Datura stramonium lectin (Datura stramonium); test: filter; conditions: 2'-NH2 all C and U; <5% bound at 1 uM protein
pKd: −log10 of the molar value.
Hi there, I'd appreciate the recorded pKd for every entry that follows.

The sequence GGGAAAAGCGAAUCAUACACAAGAAAGGGAUGGGAUUGGGACGAGCGGCCAAGACUCGGCGGGAACGAAGGGUCCGCUCCGCCAGAGACCAACCGAGAA [6.8] , when measured on Datura stramonium lectin (Datura stramonium), yielded pKd of < 4.70

The sequence GGGAAAAGCGAAUCAUACACAAGACGGCUGUGUGGUGUUGGAGCGUCAUAGUAGGAGUCGUCACGAACCAAGGCGCUCCGCCAGAGACCAACCGAGAA [11.24] , when measured on Datura stramonium lectin (Datura stramonium), yielded pKd of < 4.70

* * *

Target: wheat germ agglutinin (WGA) (Triticum vulgare) (UniProt P10968)
Sequence: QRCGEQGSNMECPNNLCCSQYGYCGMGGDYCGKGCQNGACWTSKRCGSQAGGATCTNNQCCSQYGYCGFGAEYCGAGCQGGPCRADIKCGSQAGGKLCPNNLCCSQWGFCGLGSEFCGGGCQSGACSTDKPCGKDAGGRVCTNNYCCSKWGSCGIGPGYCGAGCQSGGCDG
Assay: filter
Settings: 2'-NH2 all C and U; <5% bound at 1 uM WGA
pKd: −log10 of the molar value.
REPORTED_ENDPOINT: pKd

The sequence listed as GGGAAAAGCGAAUCAUACACAAGACAGCGGCGGAGUCAGUGAAAGCGUGGGGGGYGCGGGAGGUCUACCCUGACGCUCCGCCAGAGACCAACCGAGAA [6.14] shows pKd equal to < 4.70

* * *

Biological target: wheat germ agglutinin (WGA) (Triticum vulgare)
Sequence: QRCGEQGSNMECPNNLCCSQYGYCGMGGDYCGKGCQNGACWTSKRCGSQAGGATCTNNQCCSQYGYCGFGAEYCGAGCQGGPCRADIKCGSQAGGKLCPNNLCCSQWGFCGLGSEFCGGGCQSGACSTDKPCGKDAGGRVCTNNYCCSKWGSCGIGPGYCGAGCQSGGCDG
Experiment: filter
Details: <3% binding at 1.4 µM; room temp
REPORTED_ENDPOINT: Kd

The sequence listed as CTACCTACGATCTGACTAGCCGAGGTAGTCGTTATAGGGTRCRCACGACACAAARCRGTRGCTTACTCTCATGTAGTTCC [127] shows Kd equal to > 100 µM

* * *

Target: L-selectin (LS-Rg) (Homo sapiens) (UniProt P14151)
Sequence: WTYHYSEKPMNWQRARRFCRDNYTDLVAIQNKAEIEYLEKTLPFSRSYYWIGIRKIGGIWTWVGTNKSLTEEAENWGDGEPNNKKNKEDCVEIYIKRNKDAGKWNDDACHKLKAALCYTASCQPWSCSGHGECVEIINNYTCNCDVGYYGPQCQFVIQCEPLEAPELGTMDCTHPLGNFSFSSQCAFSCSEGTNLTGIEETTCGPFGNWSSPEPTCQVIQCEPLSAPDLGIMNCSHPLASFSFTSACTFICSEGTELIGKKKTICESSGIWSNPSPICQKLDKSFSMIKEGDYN
Test: filter
Conditions: 2'-NH2 all C and U; 4 C, HSMC; 7.2 nM at room temp
REPORTED_ENDPOINT: Kd (nM)
Supply the numeric figure in nM, leaving out any unit text.

The sequence GGGAGGACGAUGCGGAAGUGAAGCUAAAGCGGAGGGCCAUUCAGUUUCNCACCACAGACGACUCGCCCGA [F14.2] , when measured on L-selectin (LS-Rg) (Homo sapiens) (UniProt P14151), yielded Kd of 1.8
